System: NCI-H23 lung
method: NCI tumour cell line growth inhibition, 48 h; in the data active = GI50 below about 0.43 µM; inactive = the rest
Pick one and only one: Yes = active, No = inactive

[[record]]
compound = "O=C(c1ccco1)c1c(C(F)(F)F)n([O-])c2cc(Cl)c(Cl)cc2[n+]1=O"
category_label = "No"

[[record]]
compound = "COc1cnc2c(c1)C(=O)c1c-2n(CCCN2CCNCC2)c(=O)c2cc(F)ccc12"
category_label = "Yes"

[[record]]
compound = "C=C(CN1CCc2ccccc2C1)c1ccc(C(=O)Nc2cccc(N)c2)cc1"
category_label = "No"

[[record]]
compound = "CCN(CC)c1ccc(C=C2C(=O)NC(=S)NC2=O)cc1"
category_label = "No"

[[record]]
compound = "CC(=O)[O-].O=C([CH-]C(=O)c1ccccc1)c1ccccc1.O=C([CH-]C(=O)c1ccccc1)c1ccccc1.[Dy+3]"
category_label = "No"


Test call for this compound, please: Cc1cc(C)c(CNC(=O)c2cc(Cl)c3c(c2C)O[C@@](C)(C2CCC(N(C)C)CC2)O3)c(=O)[nH]1 (some centres undefined)
No

Proceed to COc1ccc2c(c1)c(-c1nc(-c3cn(C)c4ncccc34)cs1)cn2CCCCN1CCCCC1
No

Try the compound CCC[CH2][Sn]1([CH2]CCC)[O]C(=O)c2cccnc2[S]1
No
